Biological target: human PAH with the R408W mutation (Homo sapiens, UniProt P00439, R408W)
Construct: expressed in transfected cells
Sequence (P00439 1-452 R408W): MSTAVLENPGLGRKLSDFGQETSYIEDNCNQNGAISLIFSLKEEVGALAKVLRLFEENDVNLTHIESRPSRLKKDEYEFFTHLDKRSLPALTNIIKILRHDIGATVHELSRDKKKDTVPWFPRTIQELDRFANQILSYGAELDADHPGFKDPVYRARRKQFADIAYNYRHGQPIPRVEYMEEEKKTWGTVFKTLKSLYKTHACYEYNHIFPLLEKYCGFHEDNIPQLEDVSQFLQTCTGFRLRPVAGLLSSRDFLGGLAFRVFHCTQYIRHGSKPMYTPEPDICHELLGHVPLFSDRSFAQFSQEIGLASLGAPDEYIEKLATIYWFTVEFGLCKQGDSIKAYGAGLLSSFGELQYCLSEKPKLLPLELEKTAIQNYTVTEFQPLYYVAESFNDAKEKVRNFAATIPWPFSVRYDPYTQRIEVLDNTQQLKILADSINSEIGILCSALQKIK
Experiment: Cell Based Phenylalanine Flux Assay
Details: A375 cells expressing human R408W PAH; 24 hrs compound incubation; 13C-Tyrosine by LC-MS; average where tested multiple times; read-out: AC50
Record form. Attribute: AC50. Fill in for each entry.

get_value(item= O=C(c1oc(/C=C/C2CC2)nc1C(F)(F)F)N1CCc2[nH]cnc2[C@H]1c1nc2ccccc2s1 , readout=AC50) returns 500 to 1000 nM

get_value(item= O=C(c1cnn(C(F)F)c1)N1CCc2[nH]cnc2[C@H]1c1nc2ccccc2s1 , readout=AC50) returns 500 to 1000 nM

get_value(item= O=C(c1nncs1)N1CCc2[nH]cnc2[C@@H]1c1nc2ccc(Br)cc2[nH]1 , readout=AC50) returns > 5000 nM

get_value(item= O=C(CCC1CCCC1)N1CCc2[nH]cnc2[C@H]1c1nc2ccccc2[nH]1 , readout=AC50) returns 500 to 1000 nM

get_value(item= COCCc1ccc2c(C(=O)N3CCc4[nH]cnc4[C@H]3c3nc4ccccc4s3)cnn2c1 , readout=AC50) returns < 500 nM

get_value(item= O=C(c1nnc(-c2ccccn2)o1)N1CCc2[nH]cnc2[C@@H]1c1nc2ccccc2s1 , readout=AC50) returns 1000 to 5000 nM

get_value(item= CC1(c2nc(C(F)F)c(C(=O)N3CCc4[nH]cnc4[C@@H]3c3nc4ccccc4s3)o2)CC1 , readout=AC50) returns < 500 nM

get_value(item= O=C(c1oc(-c2ccccn2)nc1C1CC1)N1CCCc2[nH]cnc2[C@H]1c1nc2ccccc2s1 , readout=AC50) returns 500 to 1000 nM

get_value(item= CC(C)(O)c1nc(Cl)c(C(=O)N2CCc3[nH]cnc3[C@H]2c2nc3c(F)cccc3s2)o1 , readout=AC50) returns < 500 nM

get_value(item= C[C@H](O)c1nc(C(F)F)c(C(=O)N2CCc3[nH]cnc3[C@H]2c2nc3ccccc3s2)o1 , readout=AC50) returns < 500 nM

get_value(item= O=C(c1ncc(Cl)s1)N1CCc2[nH]cnc2[C@@H]1c1nc2ccccc2s1 , readout=AC50) returns 1000 to 5000 nM

get_value(item= Cc1nc(C(C)(C)F)oc1C(=O)N1CCc2[nH]cnc2[C@H]1c1nc2ccccc2s1 , readout=AC50) returns < 500 nM

get_value(item= Cc1ccc(-c2nnc(C(=O)N3CCc4[nH]cnc4[C@@H]3c3nc4c(F)cccc4s3)o2)nc1 , readout=AC50) returns 500 to 1000 nM

get_value(item= O=C(CCc1nccs1)N1CCc2[nH]cnc2[C@H]1c1nc(C2CC2)cs1 , readout=AC50) returns > 5000 nM

get_value(item= O=C(CCc1nccs1)N1CCc2[nH]cnc2[C@H]1c1nc2ccc(Br)cc2[nH]1 , readout=AC50) returns < 500 nM

get_value(item= N#Cc1ncoc1C(=O)N1CCc2[nH]cnc2[C@@H]1c1nc2ccccc2s1 , readout=AC50) returns > 5000 nM
